tested on: eIF2α in HEK293-EGFP-eIF2α cells; assay: PERK Cellular Assay (HEK293-EGFP-eIF2α cells, tunicamycin-induced ER stress, TR-FRET); assay type: cell-based; conditions: tunicamycin 2 hours
pIC50: −log10 of the molar value.
Assign pIC50 to each entry below.

| COMPOUND | pIC50 |
| --- | --- |
| [2H]C([2H])([2H])c1nc(-c2ccc(NC(=O)C(O)c3cccc(F)c3)cc2C)c2c(N)ncc(C(F)(F)F)n12 (stereo not shown) [Example 30] | 7.60 to 9.00 |
| [2H]C([2H])([2H])c1nc(-c2ccc(NC(=O)C(O)c3cc(F)cc(C(F)(F)F)c3)cc2C)c2c(N)nc(C)cn12 (stereo not shown) [Example 53] | 6.00 to 6.30 |
| [2H]C([2H])([2H])c1nc(-c2ccc(NC(=O)C(O)c3cc(F)cc(F)c3)cc2F)c2c(N)nc(C)cn12 (stereo not shown) [Example 103] | 6.30 to 6.60 |
| [2H]C([2H])([2H])c1nc(-c2ccc(NC(=O)C(O)c3cc(F)cc(F)c3)cc2C)c2c(N)ncc(Cl)n12 (stereo not shown) | 7.60 to 9.00 |
| [2H]C([2H])([2H])c1nc(-c2ccc(NC(=O)C(O)c3cccc(C(F)(F)F)c3)c(F)c2F)c2c(N)nc(C)cn12 (stereo not shown) [Example 151] | 6.30 to 6.60 |

Please go through the list and note pIC50 for each compound.
1. [2H]C([2H])([2H])c1nc(-c2ccc(NC(=O)C(O)c3cc(F)cc(F)c3)c(F)c2F)c2c(N)ncc(Cl)n12 (stereo not shown) [Example 157]
2. [2H]C([2H])([2H])c1nc(-c2ccc(NC(=O)C(O)c3cccc(F)c3)c(F)c2F)c2c(N)nc(C)cn12 (stereo not shown) [Example 130]

Resp:
1: 7.00 to 7.29; 2: 7.60 to 9.00
